TEST: NCI Yeast Anticancer Drug Screen. Data for the sgs1 mgt1 strain (AID 161);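 note: 0% = growth of cultures given vehicle only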
DETAILS: S. cerevisiae sgs1 mgt1 strain, at 50.0 µM, hits give high values
The panel holds about 79,000 compounds, 15% with a hit somewhere; the sample as a whole holds those more often. Where a SMILES comes first, the peptide text is derived from it. [ ]: non-standard residue; d: D form. ξ: configuration not given here. ξP = O=C(O)C1CCCN1
EXPERIMENTAL ENDPOINT: growth inhibition (%)
Field format: number, assumed %, no unit text.

Would you please look over these solved cases?
[
  {
    "COMPOUND": "[Cl][Sn]1([Cl])[CH2]CCCCCCCCCC[CH2][Sn]([Cl])([Cl])[CH2]CCCCCCCCCC[CH2]1",
    "growth inhibition / %": 9.65
  },
  {
    "COMPOUND": "NCC(=O)N1CCCC1C(=O)NCC(=O)NCC(=O)O (configuration not stated) (H-G[ξP]GG-OH)",
    "growth inhibition / %": 4.8
  },
  {
    "COMPOUND": "CC(=O)OCCOC(C)=O",
    "growth inhibition / %": -5.1
  },
  {
    "COMPOUND": "CC(=O)Oc1ccc(C2c3cc(OC(C)=O)c(OC(C)=O)cc3CC3C(=O)OCC32)cc1OC(C)=O (configuration not stated)",
    "growth inhibition / %": 2.6
  },
  {
    "COMPOUND": "Cc1ccc(N=Nc2ccc(C)cc2NC(=O)Nc2cc([N+](=O)[O-])ccc2F)cc1",
    "growth inhibition / %": -4.6
  },
  {
    "COMPOUND": "CCO/C(O)=c1/s/c(=C2/SC(=S)N(c3ccc(C)cc3)C2=O)n(-c2ccccc2)c1=N",
    "growth inhibition / %": -16.4
  },
  {
    "COMPOUND": "C=CC12CCC(CC1)n1c(=O)n(C)c(=O)n12",
    "growth inhibition / %": -11.4
  },
  {
    "COMPOUND": "O=[N+]([O-])c1ccc(-c2nnc(C34CC5CC(CC(C5)C3)C4)o2)cc1",
    "growth inhibition / %": -13.4
  }
]

Record request: growth inhibition value, item CCOC(=O)CCC(C)=O
14.9

Quick one: growth inhibition for CC(=O)Nc1ccc(F)c(N)c1 ?
8.7

What measured growth inhibition goes with OCC(CO)=C1c2ccccc2-c2ccccc21 ?
-8.15

Reported growth inhibition, compound CCN(CC)CC(=N)N(CC)c1ccccc1 : ____
4.7

# lookup: growth inhibition of Cc1cnc(Br)c(Br)c1
3.45
